Data credit: paper PMC12313567

Assay read-out log10(Ki); system under study: AChE (Homo sapiens).
Sequence (P22303 32-614): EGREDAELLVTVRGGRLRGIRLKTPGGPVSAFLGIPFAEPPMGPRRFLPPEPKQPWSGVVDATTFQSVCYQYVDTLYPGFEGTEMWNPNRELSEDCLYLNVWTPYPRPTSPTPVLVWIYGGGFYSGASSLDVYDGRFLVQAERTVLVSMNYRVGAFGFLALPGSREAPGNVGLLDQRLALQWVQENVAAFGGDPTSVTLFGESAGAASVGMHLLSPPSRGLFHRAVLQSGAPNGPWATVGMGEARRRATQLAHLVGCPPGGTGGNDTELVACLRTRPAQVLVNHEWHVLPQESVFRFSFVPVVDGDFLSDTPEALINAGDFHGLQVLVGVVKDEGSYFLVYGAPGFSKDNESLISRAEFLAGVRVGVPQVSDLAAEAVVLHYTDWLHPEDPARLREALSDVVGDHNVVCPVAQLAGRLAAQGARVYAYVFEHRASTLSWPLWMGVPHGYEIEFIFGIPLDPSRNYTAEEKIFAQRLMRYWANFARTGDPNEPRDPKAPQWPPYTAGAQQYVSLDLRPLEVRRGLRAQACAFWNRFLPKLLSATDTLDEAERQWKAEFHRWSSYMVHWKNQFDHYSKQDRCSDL
assay-metric: log10(Ki) (log10 of the value in nM)

molecular-string	log10(Ki)
Cl.O=Cc1ccc(-n2cc[n+](CCN3CCCC3)c2)cc1.[Cl-]	3.50
Br.O=Cc1ccc(-n2cc[n+](Cc3ccccn3)c2)cc1.[Br-]	2.80
Cl.O=Cc1ccc(-n2cc[n+](CCN3CCOCC3)c2)cc1.[Cl-]	2.82
CC(=O)c1ccc(-n2cc[n+](CCN3CCOCC3)c2)cc1.Cl.[Cl-]	4.05
CC(=O)c1ccc(-n2cc[n+](CCN3CCCC3)c2)cc1.Cl.[Cl-]	3.91
Cl.O=Cc1ccc(-n2cc[n+](CCN3CCCCC3)c2)cc1.[Cl-]	2.89
